Measured values drawn from PubChem BioAssay AID732 for this set.

System: in vivo angiogenesis, blood vessel count
assay-procedure: reduction of blood vessel formation in vivo – HTS, in vivo study (AID 732);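 note: zebrafish embryos dosed at one day post fertilization; 0% = reference inhibitor and 100% = plate mean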
reported-conditions: hits give low values;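 tested at 30 µM in the well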
Task for the reader: assign each of the following compounds its reported vessel count % control.
One number for each entry, in %.

Here's what some known entries look like.
Cc1cc2c(cc1Cl)N(C(=O)Nc1ccnc3ccccc13)CC2 :: 108
Cn1c(=O)c2c(nc(/C=C/c3cccc(Cl)c3)n2C)n(C)c1=O :: 72.9
CC(=O)CCCCn1c(=O)c2c(ncn2C)n(C)c1=O :: 109

Respectfully, I request vessel count % control for each entry included below.
1. Oc1ccc2c3c1O[C@H]1c4[nH]c5c(c4C[C@@]4(O)[C@@H](C2)N(CC2CC2)CC[C@]314)C[C@@]1(O)[C@H]2Cc3ccc(O)c4c3[C@@]1(CCN2CC1CC1)[C@H]5O4
2. COc1cc2c(CCNC(C)=O)c[nH]c2cc1Cl

RESULT:
[81.2, 71.1]

---

System: in vivo angiogenesis, blood vessel count
assay-procedure: reduction of blood vessel formation in vivo – HTS, in vivo study (AID 732);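 note: zebrafish embryos dosed at one day post fertilization; 0% = reference inhibitor and 100% = plate mean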
reported-conditions: hits give low values;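 tested at 30 µM in the well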
recorded-metric: vessel count % control (%)
Answers are plain numbers, in %.

Here's what some known entries look like.
COCCOC(=O)C1=C(C)NC(C)=C(C(=O)OC(C)C)C1c1cccc([N+](=O)[O-])c1 (configuration not stated) :: 95.6
NCCCCCCCCCCN :: 146
Nc1nc2ccc(OC(F)(F)F)cc2s1 :: 77
NC(=O)c1ccccc1 :: 92
CCN1CCCC1CNC(=O)c1cc(S(N)(=O)=O)ccc1OC (configuration not stated) :: 112
CC(C)NC(C)Cc1ccc(I)cc1 (configuration not stated) :: 109
Cc1cccc2c(C3=Nc4ccccc4C3=O)c(O)[nH]c12 :: 26.6
NC(N)=NOCC[C@H](N)C(=O)O :: 94.1

Respectfully, I request vessel count % control for each entry included below.
1. O=C(O)CCCCCCCC(=O)O
2. CN(N=O)c1cc(O)ccc1O
3. CCCn1c(C)c(C(=O)c2ccc3ccccc3c2)c2ccccc21
4. COc1cc(=O)n(C)c2c(OCC(O)C(C)(C)O)cccc12 (configuration not stated)
5. OC[C@H]1O[C@@H](n2cnc3c(N[C@H]4CC5CCC4C5)ncnc32)[C@H](O)[C@@H]1O (some centres not stated)
6. CCCCN1CCC(n2c(=O)[nH]c3ccccc32)CC1
7. O=C(c1ccc2c(c1)OCCO2)N1CCCCC1
8. NCCC1CCCC(CCN)N1 (configuration not stated)

RESULT:
95.3
88
110
75.4
77.1
67.2
106
115

Respectfully, I request vessel count % control for each entry included below.
1. CC1=C(/C=C/C(C)=C/C=C/C(C)=C/C(=O)O)C(C)(C)CCC1
2. NO

RESULT:
1: 70; 2: 93.7

Respectfully, I request vessel count % control for each entry included below.
1. O=S(=O)(c1cccc2c(I)cccc12)N1CCCNCC1
2. CC1=C(C(=O)O)N2C(=O)[C@@H](NC(=O)C(N)c3ccccc3)[C@H]2SC1 (some centres not stated)
3. CC(C)Cc1ccc([C@H](C)C(=O)O)cc1

RESULT:
1: 114; 2: 93.6; 3: 66.8

Respectfully, I request vessel count % control for each entry included below.
1. CCN(CC)CCNC(=O)c1ccc(NC(C)=O)cc1
2. NC1(C(=O)O)CCc2cc(C(=O)O)ccc21 (configuration not stated)
3. NCCNC(=O)c1ccc(Cl)cc1
4. CN1CCC[C@H]1c1cccnc1
5. CCN1/C(=C/C(C)=O)Sc2ccc(OC)cc21
6. COc1ccc(CN(CCN(C)C)c2ccccn2)cc1

RESULT:
1. 117
2. 79.6
3. 106
4. 120
5. 98
6. 106
